Test: Volume of distribution at steady state in Sprague-Dawley rat at 3 mg/kg, iv and 10 mg/kg, po
Type: ADME, organism-based
Settings: in vivo, read-out: Vdss

chem_smiles: Cc1cc(F)ccc1-n1nc(C(F)(F)F)cc1-c1ccc2c(c1)NC(=O)CO2
unit_label: L/kg
Vd: 4.63

---

Target: Mineralocorticoid receptor (Homo sapiens)
Assay: biochemical
Description: Displacement of [3H]aldosterone from cytosolic human MR expressed in HEK293 cells after 16 hrs by scintillation counting
pIC50: −log10 of the molar value.
Quick list: pIC50 per entry.
property_label: pIC50

compound: Cc1nc(-c2ccc3c(c2)NC(=O)CO3)c(-c2ccccc2)s1
property_label: pIC50
measurement_qualifier: <
measured_value: 5.00
//
compound: O=C1COc2ccc(C3=Nn4cnnc4SC3c3ccccc3F)cc2N1 (centres undefined)
property_label: pIC50
measurement_qualifier: =
measured_value: 6.22
//
compound: O=C1COc2ccc(-c3cc(C(F)(F)F)nn3-c3ccccc3Cl)cc2N1
property_label: pIC50
measurement_qualifier: =
measured_value: 6.37
//
compound: O=C1COc2ccc(-c3cc(CO)nn3-c3ccc(F)cc3)cc2N1
property_label: pIC50
measurement_qualifier: =
measured_value: 5.17

---

Target: Mineralocorticoid receptor (Homo sapiens)
Sequence (P08235 whole entry): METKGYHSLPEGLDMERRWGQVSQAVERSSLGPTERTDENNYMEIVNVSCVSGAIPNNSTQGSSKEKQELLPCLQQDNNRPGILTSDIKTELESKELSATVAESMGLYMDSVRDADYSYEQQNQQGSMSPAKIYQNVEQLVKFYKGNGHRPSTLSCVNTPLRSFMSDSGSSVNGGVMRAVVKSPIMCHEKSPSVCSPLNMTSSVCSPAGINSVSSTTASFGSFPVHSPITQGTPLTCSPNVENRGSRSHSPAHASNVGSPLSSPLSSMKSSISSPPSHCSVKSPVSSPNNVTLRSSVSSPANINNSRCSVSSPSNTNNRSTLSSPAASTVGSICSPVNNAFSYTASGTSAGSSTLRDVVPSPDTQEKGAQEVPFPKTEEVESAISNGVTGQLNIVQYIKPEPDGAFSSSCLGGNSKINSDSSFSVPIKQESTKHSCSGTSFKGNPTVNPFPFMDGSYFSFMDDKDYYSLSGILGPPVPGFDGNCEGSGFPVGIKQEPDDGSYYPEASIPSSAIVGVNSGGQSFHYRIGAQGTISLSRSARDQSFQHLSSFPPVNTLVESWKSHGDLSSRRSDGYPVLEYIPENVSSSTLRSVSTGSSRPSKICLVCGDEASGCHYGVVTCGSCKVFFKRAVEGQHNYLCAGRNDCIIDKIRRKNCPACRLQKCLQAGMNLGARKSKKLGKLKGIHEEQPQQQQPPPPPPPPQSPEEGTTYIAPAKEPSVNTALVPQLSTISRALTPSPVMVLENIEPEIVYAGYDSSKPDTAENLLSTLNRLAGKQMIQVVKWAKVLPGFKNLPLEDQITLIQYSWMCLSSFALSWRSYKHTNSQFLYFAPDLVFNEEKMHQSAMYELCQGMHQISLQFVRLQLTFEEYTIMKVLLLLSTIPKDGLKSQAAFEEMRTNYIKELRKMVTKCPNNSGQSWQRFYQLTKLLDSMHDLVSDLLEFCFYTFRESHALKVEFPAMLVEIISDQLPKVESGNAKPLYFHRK
Assay: biochemical
IC50 strictly less than 1000 nM = satisfied. Otherwise not satisfied.

molecule: O=C1COc2ccc(-c3c(C(F)(F)F)cnn3-c3ccc(F)cc3)cc2N1
class: not satisfied
//
molecule: O=C1COc2ccc(C3=Nn4cnnc4SC3c3ccc(F)cc3)cc2N1 (stereo unspecified)
class: satisfied
//
molecule: Cc1cc(-c2ccc3c(c2)NC(=O)CO3)n(-c2ccc(F)cc2)n1
class: not satisfied
//
molecule: O=C1COc2ccc(-c3cc(C(F)(F)C(F)(F)F)nn3-c3ccc(F)cc3)cc2N1
class: satisfied
//
molecule: O=C1COc2ccc(C3=Nn4cnnc4SC3)cc2N1
class: not satisfied
//
molecule: O=C1COc2ccc(-c3cc(C(F)(F)F)nn3-c3cccc(F)c3)cc2N1
class: not satisfied

---

The compounds listed here are annotated with their IC50.
Target: UniProt:P04150
Sequence (P04150 whole entry): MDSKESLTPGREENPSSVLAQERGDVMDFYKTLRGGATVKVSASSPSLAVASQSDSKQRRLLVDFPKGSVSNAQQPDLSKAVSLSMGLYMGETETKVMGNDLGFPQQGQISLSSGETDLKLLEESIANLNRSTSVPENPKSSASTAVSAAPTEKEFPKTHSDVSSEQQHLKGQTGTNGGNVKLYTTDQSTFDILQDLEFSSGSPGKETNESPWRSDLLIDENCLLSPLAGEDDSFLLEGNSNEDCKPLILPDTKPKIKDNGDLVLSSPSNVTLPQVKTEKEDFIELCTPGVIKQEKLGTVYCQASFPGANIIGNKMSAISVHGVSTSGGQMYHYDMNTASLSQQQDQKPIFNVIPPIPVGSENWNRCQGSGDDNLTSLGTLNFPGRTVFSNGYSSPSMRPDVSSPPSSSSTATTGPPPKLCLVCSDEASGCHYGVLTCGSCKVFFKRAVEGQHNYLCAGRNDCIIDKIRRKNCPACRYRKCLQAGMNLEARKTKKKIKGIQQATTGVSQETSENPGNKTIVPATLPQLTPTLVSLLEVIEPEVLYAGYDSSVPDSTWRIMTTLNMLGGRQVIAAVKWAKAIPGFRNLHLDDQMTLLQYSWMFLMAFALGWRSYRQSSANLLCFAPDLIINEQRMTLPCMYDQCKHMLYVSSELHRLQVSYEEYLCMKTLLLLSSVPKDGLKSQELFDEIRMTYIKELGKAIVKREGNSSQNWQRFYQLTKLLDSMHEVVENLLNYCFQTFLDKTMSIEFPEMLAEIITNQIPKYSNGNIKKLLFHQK
Assay: Displacement of [3H]dexomethasone from GR

compound: Cc1cc(F)ccc1-n1nc(C(F)(F)F)cc1-c1cc(Cl)c2c(c1)NC(=O)CO2
IC50 (nM): 200
//
compound: O=C1COc2ccc(C3=Nn4cnnc4SC3c3ccccc3F)cc2N1 (centres undefined)
IC50 (nM): 5500
//
compound: Cc1ccccc1-n1nc(C(F)(F)F)cc1-c1ccc2c(c1)NC(=O)CO2
IC50 (nM): 2500
//
compound: O=C1COc2ccc(C3=Nn4ccnc4SC3c3ccccc3)cc2N1 (centres undefined)
IC50 (nM): 3500

---

Molecular target: Mineralocorticoid receptor (Homo sapiens, UniProt P08235)
Experiment: biochemical
Listed molecules paired with reported IC50

molecule: O=C1COc2ccc(C3=Nn4cnnc4SC3Cc3ccccc3)cc2N1 (stereo unspecified)
IC50: 1300 nM

molecule: CCc1cc(-c2ccc3c(c2)NC(=O)CO3)n(-c2ccc(F)cc2)n1
IC50: 960 nM

molecule: Cc1ccccc1-n1nc(C(F)(F)F)cc1-c1ccc2c(c1)NC(=O)CO2
IC50: 80 nM

molecule: Cc1cc(-c2ccc3c(c2)NC(=O)CO3)n(-c2ccccc2)n1
IC50: 5300 nM

molecule: O=C1COc2ccc(C3=Nn4cnnc4SC3c3cccc(F)c3)cc2N1 (stereo unspecified)
IC50: 310 nM

molecule: O=C1COc2ccc(-c3cc(C(F)(F)F)nn3-c3ccccc3F)cc2N1
IC50: 440 nM

molecule: CCCC1Sc2nncn2N=C1c1ccc2c(c1)NC(=O)CO2 (stereo unspecified)
IC50: 4100 nM

molecule: CC(C)c1cc(-c2ccc3c(c2)NC(=O)CO3)n(-c2ccc(F)cc2)n1
IC50: > 10000 nM

molecule: Cc1cc(F)ccc1-n1nc(C(F)(F)F)cc1-c1cc(Cl)c2c(c1)NC(=O)CO2
IC50: 12 nM

molecule: CCc1ccccc1-n1nc(C(F)(F)F)cc1-c1ccc2c(c1)NC(=O)CO2
IC50: 700 nM

molecule: O=C1COc2ccc(-c3cc(C(F)(F)F)nn3-c3ccc(Cl)cc3)cc2N1
IC50: 320 nM

molecule: N#Cc1cc(-c2ccc3c(c2)NC(=O)CO3)n(-c2ccc(F)cc2)n1
IC50: 920 nM

molecule: Cc1cc(F)ccc1-n1nc(C(F)(F)F)cc1-c1cc(C)c2c(c1)NC(=O)CO2
IC50: 21 nM

molecule: CC1(c2ccccc2)Sc2nncn2N=C1c1ccc2c(c1)NC(=O)CO2 (stereo unspecified)
IC50: > 10000 nM

molecule: Cc1cc(F)ccc1-n1nc(C(F)(F)F)cc1-c1cc(F)c2c(c1)NC(=O)CO2
IC50: 76 nM

molecule: O=C1COc2ccc(-c3cc(C(F)(F)F)nn3-c3ccc(F)cc3)cc2N1
IC50: 260 nM

molecule: Cc1nc(-c2ccc3c(c2)NC(=O)CO3)c(-c2ccccc2)[nH]1
IC50: > 10000 nM

molecule: O=C1COc2ccc(C3=Nn4ccnc4SC3c3ccccc3)cc2N1 (stereo unspecified)
IC50: 36 nM

molecule: Cc1ccc(-n2nc(C(F)(F)F)cc2-c2ccc3c(c2)NC(=O)CO3)cc1
IC50: 590 nM

molecule: Cc1cc(F)ccc1-n1nc(C(F)(F)F)cc1-c1ccc2c(c1)NC(=O)CO2
IC50: 41 nM

molecule: O=C1COc2ccc(C3=Nc4ccccc4SC3c3ccccc3)cc2N1 (stereo unspecified)
IC50: 69 nM

---

Experiment: AUC (0 to 24 hrs) in Sprague-Dawley rat at 10 mg/kg, po
Assay type: ADME, organism-based
Design: time < 24 hr, dose 10 mg/kg, route oral
Settings: plasma
property_label: AUC(0-t) at 24 h (ng·h/mL)

chem_smiles: Cc1cc(F)ccc1-n1nc(C(F)(F)F)cc1-c1ccc2c(c1)NC(=O)CO2
property_label: AUC(0-t) at 24 h
measured_value: 3830

---

Assay: Mean residence time in Sprague-Dawley rat at 10 mg/kg, po
Assay type: ADME, organism-based
Design: dose 10 mg/kg, route oral
Conditions: in vivo

chem_smiles: Cc1cc(F)ccc1-n1nc(C(F)(F)F)cc1-c1ccc2c(c1)NC(=O)CO2
MRT / h: 4.39

---

Assay: Clearance in Sprague-Dawley rat at 3 mg/kg, iv and 10 mg/kg, po
Assay type: ADME, organism-based
Conditions: in vivo

chem_smiles: Cc1cc(F)ccc1-n1nc(C(F)(F)F)cc1-c1ccc2c(c1)NC(=O)CO2
clearance / mL/min/kg: 22.1

---

Below: a set of entries, each annotated with reported bioavailability.
Test: Bioavailability in Sprague-Dawley rat at 3 mg/kg, iv and 10 mg/kg, po
Type: ADME, organism-based
Details: in vivo

chem_smiles: O=C1COc2ccc(-c3cc(C(F)(F)F)nn3-c3ccc(F)cc3)cc2N1
bioavailability (%): 28
//
chem_smiles: Cc1cc(F)ccc1-n1nc(C(F)(F)F)cc1-c1ccc2c(c1)NC(=O)CO2
bioavailability (%): 50.7
